Assay: Cell Viability - LYMP2-015 (AID 971);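 further: cells exposed to compound for 24 h; nearly all actives have a fitted effect of over 55% in size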
Details: LYMP2-015 lymphoblastoid cell viability; series mostly up to 92.2 µM
Records with an inconclusive call do not appear. Calls of active or inactive are those of the source. The call rests on the fitted dose curve; in most records, active means well fitted cell-killing curve with a large enough effect; inconclusive means small, poorly fitted or top-dose-only effect; inactive means flat fitted curve, though single readings scatter.
Just give me one of these, please: active, inactive

Examples with answers:
# molecule, group
measured = [
    ("O=C(O)/C=C\\C(=O)O", "inactive"),
    ("Nc1nc2ccc([N+](=O)[O-])cc2s1", "inactive"),
    ("CN(C)c1ccc(C(=C2C=CC(=[N+](C)C)C=C2)c2ccccc2)cc1", "active"),
    ("COc1cc(CNC(=O)CCCC/C=C/C(C)C)ccc1O", "inactive"),
    ("CCCCCCCCCCCCCCCCCC(=O)O", "inactive"),
    ("O=C(O)c1cc(O)c(O)c(O)c1", "inactive"),
]

In: I'd appreciate the recorded outcome for `CCCOC(=O)c1ccc(O)cc1` from this test.
Out: inactive
